# Study Target: Cytochrome P450 2C9 (Homo sapiens)
# Method Notes: blockers of cytochrome P450 2C9 activity – biochemical, luminescence, ADME assay, primary screen (AID 777)
# Test Context: CYP2C9 Supersomes, luciferin-H conversion, at 5 µM, hits give high values
Among all 96,000 compounds or so, about 19,000 (20%) were called active. Only a sample is shown.
The label depends only on inhibition: True if it is at least 10%, False if it is smaller.

> print(dat)
                                   molecule                        study.target  label
1    COC(=O)Cc1cc(=O)n(-c2nc3ccccc3s2)[nH]1  Cytochrome P450 2C9 (Homo sapiens)   True
2         Cc1ccc(SC(=O)COc2ccc(C)c(C)c2)cc1  Cytochrome P450 2C9 (Homo sapiens)   True
3  COC(=O)Nc1ccc(S(=O)(=O)N2CCN(CCN3C(=O)C4C5C=CC(C5)C4C3=O)CC2)cc1 (stereo not given)  Cytochrome P450 2C9 (Homo sapiens)   True
4           Cc1cccc(NC(=O)c2ccc3ccccc3n2)n1  Cytochrome P450 2C9 (Homo sapiens)  False
5     CCOC(=O)Nc1ccc(S(=O)(=O)N(C)C(C)C)cc1  Cytochrome P450 2C9 (Homo sapiens)   True
